- System: johnsongrass (Sorghum halepense, SORHA)
- measurement_description: Greenhouse herbicide screen, post-emerge application, phytotoxicity rating
- Format: in vivo
- assay_setup: POST emergent, 250 g ai/ha, 14 days after application, scale 0-100
Recorded measurements of phytotoxicity rating SORHA, one per entry
Number only, please.

Fill in the blank: the reported phytotoxicity rating SORHA of `CN(C)NC(=O)c1cc(-n2c(=O)cc(C(F)(F)F)n(C)c2=O)ccc1Cl` is ____. 80

What would you report for `Cn1c(C(F)(F)F)cc(=O)n(-c2cc(C(=O)NNC(=O)OC(C)(C)C)c(Cl)cc2F)c1=O` ? 55

What would you report for `Cn1c(C(F)(F)F)cc(=O)n(-c2cc(C(=O)NN=C(C(C)(C)C)C(C)(C)C)c(Cl)cc2F)c1=O` ? 100

What would you report for `C#CCOC(=NN=C(C(C)(C)C)C(C)(C)C)c1cc(-n2c(=O)cc(C(F)(F)F)n(C)c2=O)c(F)cc1Cl` ? 15

----------
- Test system: green foxtail (Setaria viridis, SETVI)
- measurement_description: Greenhouse herbicide screen, post-emerge application, phytotoxicity rating
- Type: in vivo
- assay_setup: POST emergent, 250 g ai/ha, 14 days after application, scale 0-100
Recorded measurements of phytotoxicity rating SETVI, one per entry

Worked cases, phytotoxicity rating SETVI given:
                                   compound                  value_type  obs_value
0  CN(NC(=O)c1cc(-n2c(=O)cc(C(F)(F)F)n(C)c2=O)c(F)cc1Cl)c1ccccc1  phytotoxicity rating SETVI         95
1  Cn1c(C(F)(F)F)cc(=O)n(-c2cc(C(=O)NN(Cc3ccccc3)Cc3ccccc3)c(Cl)cc2F)c1=O  phytotoxicity rating SETVI        100
2  CC1CCCC(C)N1N=C(OC(=O)C(Cl)Cl)c1cc(-n2c(=O)cc(C(F)(F)F)n(C)c2=O)c(F)cc1Cl (stereo not shown)  phytotoxicity rating SETVI         60
3  CCOC(=O)NNC(=O)c1cc(-n2c(=O)cc(C(F)(F)F)n(C)c2=O)c(F)cc1Cl  phytotoxicity rating SETVI         99
4  CN(C)NC(=O)c1cc(-n2c(=O)cc(C(F)(F)F)n(C)c2=O)ccc1Cl  phytotoxicity rating SETVI         75

Given the entry `Cn1c(C(F)(F)F)cc(=O)n(-c2cc(C(=O)NN3CCCC3)c(Cl)cc2F)c1=O` , what phytotoxicity rating SETVI was observed with green foxtail (Setaria viridis, SETVI)? 55

What would you report for `Cn1c(C(F)(F)F)cc(=O)n(-c2cc(C(=O)NNC(=O)OC(C)(C)C)c(Cl)cc2F)c1=O` ? 60

----------
- System: upland rice (Oryza sp., var.Cocodrie, RICE)
- measurement_description: Greenhouse herbicide screen, pre-emerge application, crop damage rating
- Assay type: in vivo
- assay_setup: PRE emergent, 63 g ai/ha, 14 days after application, rating scale 0-100
value_type: crop damage rating RICE
Number only, please.

In [3]: df
Out[3]:
                                   compound                     target_or_test_system  obs_value
0  CC(=NN=C(OS(C)(=O)=O)c1cc(-n2c(=O)cc(C(F)(F)F)n(C)c2=O)c(F)cc1Cl)C(C)(C)C [Compound 5-3]  upland rice (Oryza sp., var.Cocodrie, RICE)         30
1  CN(C)NC(=O)c1cc(-n2c(=O)cc(C(F)(F)F)n(C)c2=O)ccc1Cl [Compound 1-4]  upland rice (Oryza sp., var.Cocodrie, RICE)          0
2  CC1CCCC(C)N1NC(=O)c1cc(-n2c(=O)cc(C(F)(F)F)n(C)c2=S)c(F)cc1Cl (stereo not shown) [Compound 1-15]  upland rice (Oryza sp., var.Cocodrie, RICE)         55
3  Cn1c(C(F)(F)F)cc(=O)n(-c2cc(C(=O)NN3CCCC3)c(Cl)cc2F)c1=O [Compound 1-11]  upland rice (Oryza sp., var.Cocodrie, RICE)          5

Fill in the blank: the reported crop damage rating RICE of CC1CCCC(C)N1NC(=O)c1cc(-n2c(=O)cc(C(F)(F)F)n(C)c2=O)c(F)cc1Cl (stereo not shown) [Compound 1-16] is ____. 45

What would you report for C#CCOC(=NN=C(C(C)(C)C)C(C)(C)C)c1cc(-n2c(=O)cc(C(F)(F)F)n(C)c2=O)c(F)cc1Cl [Compound 5-7] ? 0

What would you report for CC(=O)OC(=NN(C)C)c1cc(-n2c(=O)cc(C(F)(F)F)n(C)c2=O)ccc1Cl [Compound 4-4] ? 10

What would you report for Cn1c(C(F)(F)F)cc(=O)n(-c2cc(C(=O)NN=C(c3ccccc3)c3ccccc3)c(Cl)cc2F)c1=O [Compound 6-15] ? 0

What would you report for CN1CCN(NC(=O)c2cc(-n3c(=O)cc(C(F)(F)F)n(C)c3=S)c(F)cc2Cl)CC1 [Compound 1-14] ? 0

What would you report for Cn1c(C(F)(F)F)cc(=O)n(-c2cc(C(=O)NN(Cc3ccccc3)Cc3ccccc3)c(Cl)cc2F)c1=O [Compound 1-29] ? 0

What would you report for CC1CCCC(C)N1N=C(OC(=O)C(Cl)Cl)c1cc(-n2c(=O)cc(C(F)(F)F)n(C)c2=O)c(F)cc1Cl (stereo not shown) [Compound 4-8] ? 0

What would you report for CCOC(=O)NNC(=O)c1cc(-n2c(=O)cc(C(F)(F)F)n(C)c2=O)c(F)cc1Cl [Compound 1-23] ? 45

What would you report for Cn1c(C(F)(F)F)cc(=O)n(-c2cc(C(=O)NNC(=O)OC(C)(C)C)c(Cl)cc2F)c1=O [Compound 1-24] ? 5

What would you report for CC(=O)OC(=NN1C(C)CCCC1C)c1cc(-n2c(=O)cc(C(F)(F)F)n(C)c2=O)c(F)cc1Cl (stereo not shown) [Compound 4-9] ? 10

What would you report for CC(=NN=C(OC(=O)C(Cl)Cl)c1cc(-n2c(=O)cc(C(F)(F)F)n(C)c2=O)c(F)cc1Cl)C(C)(C)C [Compound 5-4] ? 55

What would you report for CN(NC(=O)c1cc(-n2c(=O)cc(C(F)(F)F)n(C)c2=O)c(F)cc1Cl)c1ccccc1 [Compound 1-9] ? 0
